B1: CLINT1 (parent)
chain: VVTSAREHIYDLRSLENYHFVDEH

Variants of: B1
protocol.description: protein stability index of a GFP-peptide fusion (GPS, HEK-293T) (PSI 1-6); higher = more stable;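 note: lentivirally expressed fusions sorted by FACS into six bins by GFP to DsRed ratio, PSI derived from sequencing read proportions per bin multiplied by bin number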
test.parameters: c terminus: a fixed tail appended
endpoint.name: protein stability index
// print number alone

- variant.identifier: "Y10A"
  protein stability index: 3.84
- variant.identifier: "S4C"
  protein stability index: 1.64
- variant.identifier: "H8Y"
  protein stability index: 1.89
- variant.identifier: "V2S"
  protein stability index: 3.12
- variant.identifier: "V2A"
  protein stability index: 3.34
- variant.identifier: "V21M"
  protein stability index: 2.54

[ask] Recorded protein stability index for `V2W` , please?
[reply] 2.38

[ask] Recorded protein stability index for `D22Y` , please?
[reply] 1.5

[ask] Recorded protein stability index for `T3V` , please?
[reply] 2.07

[ask] Recorded protein stability index for `H19F` , please?
[reply] 2.26

[ask] Recorded protein stability index for `H19P` , please?
[reply] 3

Where these numbers come from: the supplement of paper PMC10567573
